Numbers sourced from PubChem BioAssay AID1963874.

# Test system: 253994-281-T-J1-PDC KRAS-mutant spheroids with HUVEC/MSC, viability;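 note: spheroids exposed to agents for seven days before readout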
# assay-remarks: Anticancer human tumor 253994-281-T-J1-PDC patient-derived colorectal carcinoma cell line growth inhibition [KRAS2]; active = viability on the fitted dose curve at most 10% of control; inactive = the rest
# condition-summary: second compound 10 µM; first compound 0.316 µM
Possible outcomes: active, inactive

[
  {
    "molecule": "CC(=O)OC12COC1CC(O)C1(C)C(=O)C(O)C3=C(C)C(OC(=O)C(O)C(NC(=O)OC(C)(C)C)c4ccccc4)CC(O)(C(OC(=O)c4ccccc4)C21)C3(C)C (stereo not given) + C=CC(=O)N1CCN(c2nc(=O)n(-c3c(C)ccnc3C(C)C)c3nc(-c4c(O)cccc4F)c(F)cc23)C(C)C1",
    "category": "inactive"
  },
  {
    "molecule": "CC1(C)CCC(CN2CCN(c3ccc(C(=O)NS(=O)(=O)c4ccc(NCC5CCOCC5)c([N+](=O)[O-])c4)c(Oc4cnc5[nH]ccc5c4)c3)CC2)=C(c2ccc(Cl)cc2)C1 + CC1OCC2(CCN(c3cnc(Sc4ccnc(N)c4Cl)c(N)n3)CC2)C1N",
    "category": "inactive"
  },
  {
    "molecule": "CCN1CCN(Cc2ccc(Nc3ncc(F)c(-c4cc(F)c5nc(C)n(C(C)C)c5c4)n3)nc2)CC1 + CC1OCC2(CCN(c3cnc(Sc4ccnc(N)c4Cl)c(N)n3)CC2)C1N",
    "category": "inactive"
  },
  {
    "molecule": "COc1cc2nccc(Oc3ccc(NC(=O)C4(C(=O)Nc5ccc(F)cc5)CC4)cc3)c2cc1OC + CNCc1ccccc1-c1csc(C(C)Nc2nc(C)nc3cc(OC)c(OC)cc23)c1",
    "category": "active"
  },
  {
    "molecule": "CC(C)NCC(C(=O)N1CCN(c2ncnc3c2C(C)CC3O)CC1)c1ccc(Cl)cc1 (stereo not given) + CC1OCC2(CCN(c3cnc(Sc4ccnc(N)c4Cl)c(N)n3)CC2)C1N",
    "category": "inactive"
  }
]
